Values from patent US9718790B2

Target: UniProtKB P56373
Assay: Evaluation of human P2X3 receptor inhibitory activity (Fluo-3 calcium fluorescence, FDSS 3000, ATP stimulation)
Assay type: cell-based
Settings: C6BU-1 cells stably expressing human P2X3 receptor
pIC50: −log10 of the molar value.
quantity name: pIC50

* COc1cc(/N=c2\[nH]c(=O)n(CCC(=O)O)c(=O)n2Cc2ccc(C)cc2)ccc1CC(C)C | 7.27
* COC(=O)[C@@H](C)Cn1c(=O)[nH]/c(=N\c2ccc3nc(C)sc3c2)n(Cc2ccc(Cl)cc2)c1=O | 8.15
* Cc1ccc(Oc2ccc(/N=c3\[nH]c(=O)n([C@@H](C)[C@@H](C)C(=O)O)c(=O)n3Cc3ccc(Cl)cc3)cc2)cn1 | 8.05
* CC[C@H](C)Oc1ccc(/N=c2\[nH]c(=O)n(C[C@H](C)C(=O)OC)c(=O)n2Cc2ccc(Cl)cc2)cc1 | 7.85
* CCn1c(=O)[nH]/c(=N\c2ccc(Oc3ccnc(C(=O)OC)c3)cc2)n(CC2CCC3(CC2)CC3)c1=O | 8.22
* Cc1ccc(Cn2c(=O)n(CCC(=O)O)c(=O)[nH]/c2=N\c2ccc(OC(C)C)c(C3CC3)c2)cc1 | 7.18
* CCn1c(=O)[nH]/c(=N\c2ccc(Oc3ncc(C(=O)O)s3)cc2)n(Cc2ccc(Cl)cc2)c1=O | 8.22
* COC(=O)[C@@H](C)Cn1c(=O)[nH]/c(=N\c2ccc(CC#N)c(Cl)c2)n(Cc2ccc(Cl)cc2)c1=O | 6.36
* Cc1ccc(Cn2c(=O)n([C@H](C)[C@H](C)C(=O)O)c(=O)[nH]/c2=N\c2ccc(OC(C)C)cc2)cc1 | 7.15
* Cc1ccc(Oc2ccc(/N=c3\[nH]c(=O)n(CCC(=O)O)c(=O)n3Cc3ccc(Cl)cc3)cc2)cn1 | 7.60
* CCn1c(=O)[nH]/c(=N\c2ccc(Oc3nc(C(=O)O)co3)cc2)n(Cc2ccc(Cl)cc2)c1=O | 7.48
* O=C(O)CCn1c(=O)[nH]/c(=N\c2ccc(OC3CCC3)cc2)n(Cc2ccc(Cl)cc2)c1=O | 7.47
* COC(=O)[C@@H](C)[C@@H](C)n1c(=O)[nH]/c(=N\c2ccc(N3CCCCC3)cc2)n(Cc2ccc(Cl)cc2)c1=O | 7.64
* CCn1c(=O)[nH]/c(=N\c2ccc(Oc3ccc(C(=O)O)nc3)cc2)n(Cc2ccc(Cl)cc2)c1=O | 7.74
* COC(=O)[C@@H](C)[C@@H](C)n1c(=O)[nH]/c(=N\c2ccc(OCC3CC3)cc2)n(Cc2ccc(C)cc2)c1=O | 7.23
* Cc1ccc(Cn2c(=O)n([C@H](C)[C@H](C)C(=O)O)c(=O)[nH]/c2=N\c2ccc(OC(C)C)c(F)c2)cc1 | 7.44
* COC(=O)[C@@H](C)Cn1c(=O)[nH]/c(=N\c2ccc(OC)c(C(F)(F)F)c2)n(Cc2ccc(Cl)cc2)c1=O | 6.41
* Cc1ccc(Cn2c(=O)n(CC(C)(C)C(=O)O)c(=O)[nH]/c2=N\c2cccc(C(F)(F)F)c2)cc1 | 7.49
* COc1cc(/N=c2\[nH]c(=O)n(CCCO)c(=O)n2Cc2ccc(Cl)cc2)ccc1OC(C)C | 8.10
* COc1cc(/N=c2\[nH]c(=O)n(CCC(=O)O)c(=O)n2Cc2ccc(C)cc2)ccc1OC(C)C | 7.51
* COC(=O)[C@@H](C)[C@@H](C)n1c(=O)[nH]/c(=N\c2ccc(CC(C)C)c(Cl)c2)n(Cc2ccc(C)cc2)c1=O | 7.41
* Cc1ccc(Cn2c(=O)n(C[C@H](C)C(=O)O)c(=O)[nH]/c2=N\c2ccc(NS(C)(=O)=O)cc2)cc1 | 6.68
* CC(C)Oc1ccc(/N=c2\[nH]c(=O)n(Cc3n[nH]c(=O)o3)c(=O)n2Cc2ccc(Cl)cc2)cc1F | 7.27
* O=c1[nH]/c(=N\c2ccc(OCC3CC3)cc2)n(Cc2ccc(Cl)cc2)c(=O)n1CCCO | 7.64
* CCOC(=O)c1sc(Oc2ccc(/N=c3\[nH]c(=O)n(CC)c(=O)n3Cc3ccc(Cl)cc3)cc2)nc1C | 7.85
* CCn1c(=O)[nH]/c(=N\c2ccc(Oc3ccnc(C(=O)O)c3)cc2)n(CC2CCC(C)(C)CC2)c1=O | 7.92
* Cc1ccc(Cn2c(=O)n([C@@H](C)[C@@H](C)C(=O)O)c(=O)[nH]/c2=N\c2cccc(C(F)(F)F)c2)cc1 | 7.52

----------
Target: UniProt P56373
Assay: Evaluation of human P2X3 receptor inhibitory activity (Fluo-3 calcium fluorescence, FDSS 3000, ATP stimulation)
Type: cell-based
Conditions: C6BU-1 cells stably expressing human P2X3 receptor
Here, each record is paired with measured IC50 data.
quantity name: IC50 (nM)

* CC(C)Oc1ccc(/N=c2\[nH]c(=O)n(C[C@H](C)C(=O)O)c(=O)n2Cc2ccc(F)cc2)cc1 | 216
* Cc1ccc(Cn2c(=O)n(CCC(=O)O)c(=O)[nH]/c2=N\c2ccc(Cl)cc2)cc1 | 975
* COC(=O)[C@@H](C)Cn1c(=O)[nH]/c(=N\c2ccc(/C=C/C3CC3)cc2)n(Cc2ccc(C)cc2)c1=O | 40
* CCOC(=O)CCn1c(=O)[nH]/c(=N\c2ccc(Oc3ccncc3)cc2)n(Cc2ccc(Cl)cc2)c1=O | 2
* COC(=O)C(C)(C)Cn1c(=O)[nH]/c(=N\c2ccc(OC(C)C)c(OC)c2)n(Cc2ccc(Cl)cc2)c1=O | 7
* CC[C@H](C)Oc1ccc(/N=c2\[nH]c(=O)n(C[C@H](C)C(=O)O)c(=O)n2Cc2ccc(Cl)cc2)cc1 | 24
* COC(=O)[C@@H]1CC(n2c(=O)[nH]/c(=N\c3ccc(OC(C)C)c(C)c3)n(Cc3ccc(Cl)cc3)c2=O)CN1C(=O)OC(C)(C)C (some centres unmarked) | 37
* C[C@@H](Cn1c(=O)[nH]/c(=N\c2ccc(N3CCCCCC3)cc2)n(Cc2ccc(Cl)cc2)c1=O)C(=O)O | 214
* CCCc1ccc(/N=c2\[nH]c(=O)n(C[C@H](C)C(=O)OC)c(=O)n2Cc2ccc(C)cc2)cc1Cl | 15
* C[C@@H](Oc1ccc(/N=c2\[nH]c(=O)n(CC(=O)NCCO)c(=O)n2Cc2ccc(Cl)cc2)cc1)C(F)(F)F | 28
* Cc1ccc(Cn2c(=O)n(CCC(=O)O)c(=O)[nH]/c2=N\c2ccc(CC(C)C)c(F)c2)cc1 | 51
* C=C(Cn1c(=O)[nH]/c(=N\c2ccc(OC(C)C)c(C)c2)n(Cc2ccc(Cl)cc2)c1=O)C(=O)OCC | 16
* C=Cc1cc(/N=c2\[nH]c(=O)n(C[C@H](C)C(=O)O)c(=O)n2Cc2ccc(C)cc2)ccc1OCC | 31
* CCCc1ccc(/N=c2\[nH]c(=O)n(C[C@H](C)C(=O)OC)c(=O)n2Cc2ccc(Cl)cc2)cc1OC | 80

----------
Biological target: human P2X3 receptor (Homo sapiens (Human), UniProt P56373)
Sequence (P56373 whole entry): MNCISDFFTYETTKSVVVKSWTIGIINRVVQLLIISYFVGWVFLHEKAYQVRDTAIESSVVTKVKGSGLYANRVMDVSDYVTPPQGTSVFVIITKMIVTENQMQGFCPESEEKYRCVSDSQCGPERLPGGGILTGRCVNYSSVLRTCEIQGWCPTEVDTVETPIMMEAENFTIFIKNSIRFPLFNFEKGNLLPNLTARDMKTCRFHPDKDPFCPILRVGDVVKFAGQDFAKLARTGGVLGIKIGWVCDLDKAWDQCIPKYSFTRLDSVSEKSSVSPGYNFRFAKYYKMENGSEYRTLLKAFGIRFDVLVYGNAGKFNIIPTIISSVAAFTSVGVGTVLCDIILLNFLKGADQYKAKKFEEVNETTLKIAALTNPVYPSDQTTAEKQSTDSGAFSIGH
Assay: Evaluation of human P2X3 receptor inhibitory activity (Fluo-3 calcium fluorescence, FDSS 3000, ATP stimulation)
Assay type: cell-based
Conditions: C6BU-1 cells stably expressing human P2X3 receptor, Fluo-3 fluorescence, FDSS 3000
pIC50: −log10 of the molar value.
Here, each record is paired with measured pIC50 data.
quantity name: pIC50

• COC(=O)[C@@H](C)Cn1c(=O)[nH]/c(=N\c2ccc(Oc3ccccc3)cc2)n(Cc2ccc(C)cc2)c1=O = 7.29
• CCOC(=O)C1(Cn2c(=O)[nH]/c(=N\c3ccc(OCC4CC4)c(Cl)c3)n(Cc3ccc(C)cc3)c2=O)CC1 = 7.70
• Cc1nc2ccc(/N=c3\[nH]c(=O)n(CC(=O)NCCO)c(=O)n3Cc3ccc(Cl)cc3)cc2s1 = 8.22
• CC1(C)OCC(Cn2c(=O)[nH]/c(=N\c3ccc(OCC4CC4)cc3)n(Cc3ccc(Cl)cc3)c2=O)CO1 = 8.22

----------
Molecular target: human P2X3 receptor (Homo sapiens (Human), UniProt P56373)
Assay: Evaluation of human P2X3 receptor inhibitory activity (Fluo-3 calcium fluorescence, FDSS 3000, ATP stimulation);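 also: stimulus was 50 nM ATP with fluorescence followed for 3 min, and the response per well was peak post-ATP fluorescence divided by the reading at measurement start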
Type: cell-based
Conditions: C6BU-1 cells stably expressing human P2X3 receptor, Fluo-3 fluorescence, FDSS 3000
pIC50: −log10 of the molar value.
quantity name: pIC50

* CC(C)Oc1ccc(/N=c2\[nH]c(=O)n(Cc3cc(O)no3)c(=O)n2Cc2ccc(Cl)cc2)cc1F | 7.26
* CCn1c(=O)[nH]/c(=N\c2ccc(Oc3ccnc(C(=O)O)c3)cc2)n(Cc2ccc(Cl)cc2)c1=O | 8.30
* CCc1nc2ccc(/N=c3\[nH]c(=O)n(CC(N)=O)c(=O)n3Cc3ccc(Cl)cc3)cc2s1 | 8.30
* O=c1[nH]/c(=N\c2ccc(Oc3ccnc(O)c3)cc2)n(Cc2ccc(Cl)cc2)c(=O)n1CC(CO)CO | 8.52
* CC1(C)OC[C@H](Cn2c(=O)[nH]/c(=N\c3ccc(OCC4CC4)cc3)n(Cc3ccc(Cl)cc3)c2=O)O1 | 8.40
* CCOC(=O)CCCn1c(=O)[nH]/c(=N\c2ccc3nc(CC)sc3c2)n(Cc2ccc(C)cc2)c1=O | 8.40
* COc1ccc2cc(/N=c3\[nH]c(=O)n([C@@H](C)[C@@H](C)C(=O)O)c(=O)n3Cc3ccc(Cl)cc3)ccc2n1 | 7.42
